This collection of values is drawn from paper PMC10762177.

Target: P-gp (Homo sapiens)
Experiment: Rhodamine 123 intracellular accumulation assay in K562/Dox (flow cytometry)
Conditions: Rho123, K562/Dox, 6.25 µM
readout: FAR (fluorescence activity ratio)
# output: bare number, no unit

{"columns": ["molecule", "FAR (fluorescence activity ratio)"],
 "data": [
  ["C=C(C)[C@@H]1CC[C@]2(COC(=O)N3CCc4cc(OC)c(OC)cc4C3)CC[C@]3(C)[C@H](CC[C@@H]4[C@@]5(C)CC[C@H](O)C(C)(C)[C@@H]5CC[C@]43C)[C@@H]12", 1.27]
]}

Requested field: FAR (fluorescence activity ratio). Item: "C=C(C)[C@@H]1CC[C@]2(COC(=O)NCc3ccc(OC)c(OC)c3)CC[C@]3(C)[C@H](CC[C@@H]4[C@@]5(C)CC[C@H](O)C(C)(C)[C@@H]5CC[C@]43C)[C@@H]12"
1.23

Now this one: "C=C(C)[C@@H]1CC[C@]2(COC(=O)NCCN3CCN(C(=O)OC(C)(C)C)CC3)CC[C@]3(C)[C@H](CC[C@@H]4[C@@]5(C)CC[C@H](O)C(C)(C)[C@@H]5CC[C@]43C)[C@@H]12"
1.08

###

Molecular target: P-gp (Homo sapiens, UniProt P08183)
Sequence (P08183 whole entry): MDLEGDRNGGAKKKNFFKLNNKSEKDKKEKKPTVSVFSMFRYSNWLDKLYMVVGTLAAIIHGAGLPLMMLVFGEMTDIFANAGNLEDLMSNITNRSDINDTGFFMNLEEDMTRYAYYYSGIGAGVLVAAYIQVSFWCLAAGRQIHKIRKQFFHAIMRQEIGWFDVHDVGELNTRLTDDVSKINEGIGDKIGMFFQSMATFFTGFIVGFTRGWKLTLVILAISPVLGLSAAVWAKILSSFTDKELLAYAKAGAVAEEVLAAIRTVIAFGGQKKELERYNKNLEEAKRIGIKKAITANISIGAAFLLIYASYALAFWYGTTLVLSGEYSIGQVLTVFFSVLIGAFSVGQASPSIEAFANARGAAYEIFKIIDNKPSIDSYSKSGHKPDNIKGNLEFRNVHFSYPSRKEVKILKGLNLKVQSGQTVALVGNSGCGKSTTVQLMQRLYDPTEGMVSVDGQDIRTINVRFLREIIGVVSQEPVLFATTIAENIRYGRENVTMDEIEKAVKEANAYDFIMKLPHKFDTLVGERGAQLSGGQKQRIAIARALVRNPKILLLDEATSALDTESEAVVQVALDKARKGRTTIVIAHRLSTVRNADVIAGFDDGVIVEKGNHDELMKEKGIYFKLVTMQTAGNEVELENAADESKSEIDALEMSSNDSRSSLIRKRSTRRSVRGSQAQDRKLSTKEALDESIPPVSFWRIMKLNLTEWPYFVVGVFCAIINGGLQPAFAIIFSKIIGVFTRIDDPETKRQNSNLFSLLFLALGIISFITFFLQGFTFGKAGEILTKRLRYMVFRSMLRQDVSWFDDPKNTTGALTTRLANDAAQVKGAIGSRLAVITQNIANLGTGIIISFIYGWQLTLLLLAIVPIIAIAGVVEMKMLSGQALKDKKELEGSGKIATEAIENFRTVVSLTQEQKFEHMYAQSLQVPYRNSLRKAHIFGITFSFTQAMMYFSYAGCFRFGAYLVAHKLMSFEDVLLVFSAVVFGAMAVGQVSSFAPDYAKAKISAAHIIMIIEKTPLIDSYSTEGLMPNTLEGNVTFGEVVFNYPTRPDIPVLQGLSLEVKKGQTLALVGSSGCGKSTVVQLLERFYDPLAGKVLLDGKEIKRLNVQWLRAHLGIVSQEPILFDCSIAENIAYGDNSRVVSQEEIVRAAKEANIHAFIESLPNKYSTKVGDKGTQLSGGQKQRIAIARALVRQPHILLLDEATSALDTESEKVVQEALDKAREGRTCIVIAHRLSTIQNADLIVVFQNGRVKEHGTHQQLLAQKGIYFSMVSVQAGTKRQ
Test: Rhodamine 123 intracellular accumulation assay in K562/Dox (flow cytometry)
Details: Rho123, K562/Dox, 1.56 µM
readout: FAR (fluorescence activity ratio)

{"columns": ["molecule", "readout", "result"],
 "data": [
  ["C=C(C)[C@@H]1CC[C@]2(COC(=O)NCCc3ccc(OC)c(OC)c3)CC[C@]3(C)[C@H](CC[C@@H]4[C@@]5(C)CC[C@H](O)C(C)(C)[C@@H]5CC[C@]43C)[C@@H]12", "FAR (fluorescence activity ratio)", "1.13 ± 0.04"],
  ["C=C(C)[C@@H]1CC[C@]2(COC(=O)N3CCN(C)CC3)CC[C@]3(C)[C@H](CC[C@@H]4[C@@]5(C)CC[C@H](O)C(C)(C)[C@@H]5CC[C@]43C)[C@@H]12", "FAR (fluorescence activity ratio)", "1.41 ± 0.14"],
  ["C=C(C)[C@@H]1CC[C@]2(COC(=O)NCCN3CCNCC3)CC[C@]3(C)[C@H](CC[C@@H]4[C@@]5(C)CC[C@H](O)C(C)(C)[C@@H]5CC[C@]43C)[C@@H]12", "FAR (fluorescence activity ratio)", "1.35 ± 0.08"],
  ["C=C(C)[C@@H]1CC[C@]2(COC(=O)Nc3cc(OC)c(OC)c(OC)c3)CC[C@]3(C)[C@H](CC[C@@H]4[C@@]5(C)CC[C@H](O)C(C)(C)[C@@H]5CC[C@]43C)[C@@H]12", "FAR (fluorescence activity ratio)", "1.17 ± 0.02"],
  ["C=C(C)[C@@H]1CC[C@]2(COC(=O)NCc3cc(OC)c(OC)c(OC)c3)CC[C@]3(C)[C@H](CC[C@@H]4[C@@]5(C)CC[C@H](O)C(C)(C)[C@@H]5CC[C@]43C)[C@@H]12", "FAR (fluorescence activity ratio)", "1.27 ± 0.08"]
]}

Now consider a different molecule.
Under P-gp (Homo sapiens, UniProt P08183): FAR (fluorescence activity ratio) value of "C=C(C)[C@@H]1CC[C@]2(COC(=O)NCCc3cc(OC)c(OC)c(OC)c3)CC[C@]3(C)[C@H](CC[C@@H]4[C@@]5(C)CC[C@H](O)C(C)(C)[C@@H]5CC[C@]43C)[C@@H]12" ?
1.61 ± 0.23

###

Measured FAR (fluorescence activity ratio) of individual entries
Target: P-gp (Homo sapiens)
Test: Rhodamine 123 intracellular accumulation assay in K562/Dox (flow cytometry)
Conditions: Rho123, K562/Dox, 12.50 µM
# output: bare number, no unit

Sample answers from the record:
{"columns": ["molecule", "target-of-assay", "readout", "result-number"],
 "data": [
  ["C=C(C)[C@@H]1CC[C@]2(COC(=O)NCc3ccc(OC)c(OC)c3)CC[C@]3(C)[C@H](CC[C@@H]4[C@@]5(C)CC[C@H](O)C(C)(C)[C@@H]5CC[C@]43C)[C@@H]12", "P-gp (Homo sapiens)", "FAR (fluorescence activity ratio)", 1.40],
  ["C=C(C)[C@@H]1CC[C@]2(COC(=O)NCCc3ccc(OC)c(OC)c3)CC[C@]3(C)[C@H](CC[C@@H]4[C@@]5(C)CC[C@H](O)C(C)(C)[C@@H]5CC[C@]43C)[C@@H]12", "P-gp (Homo sapiens)", "FAR (fluorescence activity ratio)", 1.73],
  ["C=C(C)[C@@H]1CC[C@]2(COC(=O)NCCN3CCN(C(=O)OC(C)(C)C)CC3)CC[C@]3(C)[C@H](CC[C@@H]4[C@@]5(C)CC[C@H](O)C(C)(C)[C@@H]5CC[C@]43C)[C@@H]12", "P-gp (Homo sapiens)", "FAR (fluorescence activity ratio)", 1.25],
  ["C=C(C)[C@@H]1CC[C@]2(COC(=O)Nc3cc(OC)c(OC)c(OC)c3)CC[C@]3(C)[C@H](CC[C@@H]4[C@@]5(C)CC[C@H](O)C(C)(C)[C@@H]5CC[C@]43C)[C@@H]12", "P-gp (Homo sapiens)", "FAR (fluorescence activity ratio)", 1.20]
]}

Requested field: FAR (fluorescence activity ratio). Item: "C=C(C)[C@@H]1CC[C@]2(COC(=O)NCc3ccc(N4CCN(C)CC4)cc3)CC[C@]3(C)[C@H](CC[C@@H]4[C@@]5(C)CC[C@H](O)C(C)(C)[C@@H]5CC[C@]43C)[C@@H]12"
1.55

Now this one: "C=C(C)[C@@H]1CC[C@]2(C(=O)NCc3cc(OC)c(OC)c(OC)c3)CC[C@]3(C)[C@H](CC[C@@H]4[C@@]5(C)CC[C@H](O)C(C)(C)[C@@H]5CC[C@]43C)[C@@H]12"
1.04

Now this one: "C=C(C)[C@@H]1CC[C@]2(CO)CC[C@]3(C)[C@H](CC[C@@H]4[C@@]5(C)CC[C@H](O)C(C)(C)[C@@H]5CC[C@]43C)[C@@H]12"
1.80

Now this one: "C=C(C)[C@@H]1CC[C@]2(COC(=O)N3CCc4cc(OC)c(OC)cc4C3)CC[C@]3(C)[C@H](CC[C@@H]4[C@@]5(C)CC[C@H](O)C(C)(C)[C@@H]5CC[C@]43C)[C@@H]12"
1.32

###

Target: P-gp (Homo sapiens, UniProt P08183)
Experiment: Rhodamine 123 intracellular accumulation assay in K562/Dox (flow cytometry)
Settings: Rho123, K562/Dox, 50 µM
readout: FAR (fluorescence activity ratio)
# output: bare number, no unit

{"columns": ["molecule", "readout", "result-number"],
 "data": [
  ["C=C(C)[C@@H]1CC[C@]2(COC(=O)NCc3cc(OC)c(OC)c(OC)c3)CC[C@]3(C)[C@H](CC[C@@H]4[C@@]5(C)CC[C@H](O)C(C)(C)[C@@H]5CC[C@]43C)[C@@H]12", "FAR (fluorescence activity ratio)", 2.80]
]}

Under P-gp (Homo sapiens, UniProt P08183): FAR (fluorescence activity ratio) value of "C=C(C)[C@@H]1CC[C@]2(CO)CC[C@]3(C)[C@H](CC[C@@H]4[C@@]5(C)CC[C@H](O)C(C)(C)[C@@H]5CC[C@]43C)[C@@H]12" ?
2.77

Now this one: "C=C(C)[C@@H]1CC[C@]2(COC(=O)c3cc(OC)c(OC)c(OC)c3)CC[C@]3(C)[C@H](CC[C@@H]4[C@@]5(C)CC[C@H](O)C(C)(C)[C@@H]5CC[C@]43C)[C@@H]12"
1.06

Now this one: "C=C(C)[C@@H]1CC[C@]2(COC(=O)NCc3ccc(OC)c(OC)c3)CC[C@]3(C)[C@H](CC[C@@H]4[C@@]5(C)CC[C@H](O)C(C)(C)[C@@H]5CC[C@]43C)[C@@H]12"
1.97

Now this one: "C=C(C)[C@@H]1CC[C@]2(COC(=O)c3ccc(OC)cc3)CC[C@]3(C)[C@H](CC[C@@H]4[C@@]5(C)CC[C@H](O)C(C)(C)[C@@H]5CC[C@]43C)[C@@H]12"
0.88

Now this one: "C=C(C)[C@@H]1CC[C@]2(COC(=O)N3CCc4cc(OC)c(OC)cc4C3)CC[C@]3(C)[C@H](CC[C@@H]4[C@@]5(C)CC[C@H](O)C(C)(C)[C@@H]5CC[C@]43C)[C@@H]12"
2.06

Now this one: "C=C(C)[C@@H]1CC[C@]2(COC(=O)NCCc3cc(OC)c(OC)c(OC)c3)CC[C@]3(C)[C@H](CC[C@@H]4[C@@]5(C)CC[C@H](O)C(C)(C)[C@@H]5CC[C@]43C)[C@@H]12"
4.02

Now this one: "C=C(C)[C@@H]1CC[C@]2(COC(=O)NCc3ccc(OC)cc3)CC[C@]3(C)[C@H](CC[C@@H]4[C@@]5(C)CC[C@H](O)C(C)(C)[C@@H]5CC[C@]43C)[C@@H]12"
1.60

Now this one: "C=C(C)[C@@H]1CC[C@]2(COC(=O)Nc3cc(OC)c(OC)c(OC)c3)CC[C@]3(C)[C@H](CC[C@@H]4[C@@]5(C)CC[C@H](O)C(C)(C)[C@@H]5CC[C@]43C)[C@@H]12"
1.62

Now this one: "C=C(C)[C@@H]1CC[C@]2(COC(=O)NCCN3CCN(C(=O)OC(C)(C)C)CC3)CC[C@]3(C)[C@H](CC[C@@H]4[C@@]5(C)CC[C@H](O)C(C)(C)[C@@H]5CC[C@]43C)[C@@H]12"
2.57
